Target: T1, huCLL1-K244-Avi-Tev-His (human, UniProt Q5QGZ9 65-265);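 also: Bio-layer interferometry with scFvs captured on biosensors via anti-V5 antibody, exposed 2 min to CLL-1 K244 or Q244 protein, 5 min dissociation, scored as binding, no binding or ambiguous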
T1 construct: extracellular domain
T1 sequence (looked up): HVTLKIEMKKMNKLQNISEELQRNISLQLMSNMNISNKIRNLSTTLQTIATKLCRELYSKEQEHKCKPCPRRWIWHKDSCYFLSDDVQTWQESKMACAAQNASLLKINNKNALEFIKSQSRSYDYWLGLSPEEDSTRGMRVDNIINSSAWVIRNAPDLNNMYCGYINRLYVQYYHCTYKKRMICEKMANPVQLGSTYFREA
Assay: BLI
readout-kind: binding result

| binder | binding result |
| --- | --- |
| Polypeptide No. 52 (scFv, V domains shown, scFv) VH: QVQLVQSGAEVKKPGASVKVSCKASGDTFTRHYVHWVRQAPGQGLEWMGIINPRGGTHYAQKFQGRVTMTRDTSTSTVYMELSSLRSEDTAVYYCARRDCSGGSCYSDLDYWGQGTLVTVSS VL: DIQMTQSPSSLSASVGDRVTITCQASQDIHNYLNWYQQKPGKAPKLLIYQASSLESGVPSRFSGSGSGTDFTLTISSLQPEDFATYYCQQANSFPLTFGGGTKLEIKR | binds |
| Polypeptide No. 46 (scFv, V domains shown, scFv) VH: QVQLVQSGAEVKKPGASVKVSCKASGYTFTSYYMHWVRQAPGQGLEWMGMINPSAGSTSYAQKFQGRVTMTRDTSTSTVYMELSSLRSEDTAVYYCASVDSSGWYAPFDYWGQGTLVTVSS VL: DIQMTQSPSSLSASVGDRVTITCRASQSISTYLNWYQQKPGKAPKLLIYDASNLETGVPSRFSGSGSGTDFTLTISSLQPEDFATYYCQQANSFPPTFGGGTKVEIKR | binds |
| Polypeptide No. 60 (scFv, V domains shown, scFv) VH: QVQLVQSGAEVKKPGSSVKVSCKASGGTFSSYAISWVRQAPGQGLEWMGGIIPMFGTANYAQKFQGRVTITADESTSTAYMELSSLRSEDTAVYYCARDLGYSNAGGTLHYWGQGTLVTVSS VL: EIVMTQSPATLSVSPGERATLSCRASQSIGTYLAWYQQKPGQAPRLLIYDASSRATGIPARFSGSGSGTEFTLTISSLQSEDFAVYYCQQYKSYPLTFGGGTKVEIKR | binds |
| Polypeptide No. 67 (scFv, V domains shown, scFv) VH: QVQLVQSGAEVKKPGASVKVSCKASGDTFTRHYVHWVRQAPGQGLEWMGRVNPRDGRTNSAQKFQGRVTMTRDTSTSTVYMELSSLRSEDTAVYYCAKDMFPTVTGTYYYYGMDVWGQGTTVTVSS VL: DIQMTQSPSSLSASVGDRVTITCRASQGISSYLAWYQQKPGKAPKLLIYDASNLETGVPSRFSGSGSGTDFTLTISSLQPEDFATYYCQQASGFPYTFGQGTRLEIKR | no binding |
| Polypeptide No. 70 (scFv, V domains shown, scFv) VH: EVQLLESGGGLVQPGGSLRLSCAASGMSVTSNHMSWVRQAPGKGLEWVSSIYPDGKTYYADSVKGRFTISRDNSKNTLYLQMNSLRAEDTAVYYCARDEEDWFDPWGQGTLVTVSS VL: DIQMTQSPSSLSASVGDRVTITCQASQSISNWLAWYQQKPGKAPKLLIYAASTLQSGVPSRFSGSGSGTDFTLTISSLQPEDFATYYCQQSYSTPWTFGQGTKVEIKR | no binding |

Would you kindly share the measured binding result for Polypeptide No. 62 (scFv, V domains shown, scFv) VH: QVQLVQSGAEVKKPGASVKVSCKASGYTFTDHFVHWVRQAPGQGLEWMGWISAYNGNTNYAQKFQGRVTMTRDTSTSTVYMELSSLRSEDTAVYYCARAEYSYGFDYWGQGTLVTVSS VL: DIQMTQSPSSLSASVGDRVTITCRASQGIHNYLAWYQQKPGKAPKLLIYDASNLETGVPSRFSGSGSGTDFTLTISSLQPEDFATYYCQQTSSFPYTFGQGTKLEIKR ?
binds

How about this binder: Polypeptide No. 81 (scFv, V domains shown, scFv) VH: EVQLLESGGGLVQPGGSLRLSCAASGFTFSDHYMSWVRQAPGKGLEWVSIIYPDGKTYYADSVKGRFTISRDNSKNTLYLQMNSLRAEDTAVYYCAREGSYGDYDGMDVWGQGTTVTVSS VL: DIQMTQSPSSLSASVGDRVTITCQASQDISNYLNWYQQKPGKAPKLLIYGASTLQSGVPSRFSGSGSGTDFTLTISSLQPEDFATYYCQQSYSTPWTFGQGTKLEIKR
no binding

Next: Polypeptide No. 78 (scFv, V domains shown, scFv) VH: QVQLVQSGAEVKKPGSSVKVSCKASGGTFSRYPFSWVRQAPGQGLEWMGWMNPNNGDTGYAQKFQGRVTITADESTSTAYMELSSLRSEDTAVYYCARGDYPYMDVWGKGTTVTVSS VL: DIQMTQSPSSLSASVGDRVTITCQASQDISNYLNWYQQKPGKAPKLLIYDASNLETGVPSRFSGSGSGTDFTLTISSLQPEDFATYYCQQSYSIPYTFGQGTKLEIKR
no binding

Please give the result for Polypeptide No. 47 (scFv, V domains shown, scFv) VH: EVQLLESGGGLVQPGGSLRLSCAASGFTFDEYAMHWVRQAPGKGLEWVSAIGAGGSTYYADSVKGRFTISRDNSKNTLYLQMNSLRAEDTAVYYCASSLGPELRGVDYYYYGMDVWGQGTTVTVSS VL: DIVMTQSPLSLPVTPGEPASISCRSSQSLLHSNGYNYLDWYLQKPGQSPQLLIYAASSLQSGVPDRFSGSGSGTDFTLKISRVEAEDVGVYYCMQGIQWPWTFGQGTKVEIKR too.
binds

Try this binder too: Polypeptide No. 82 (scFv, V domains shown, scFv) VH: QVQLVQSGAEVKKPGSSVKVSCKASGGTFSNYDISWVRQAPGQGLEWMGGIIPIFGTANYAQKFQGRVTITADESTSTAYMELSSLRSEDTAVYYCAREAEEGGWFDPWGQGTLVTVSS VL: EIVMTQSPATLSVSPGERATLSCRASQSVSSYLAWYQQKPGQAPRLLIYGASTRATGIPARFSGSGSGTEFTLTISSLQSEDFAVYYCQQYAFSPITFGQGTKLEIKR
no binding
